pIC50: −log10 of the molar value.
pIC50 for Carbonic anhydrase 1 (Homo sapiens, UniProt P00915) - collated from the literature.
Record rule met whenever pIC50 is at 5 or higher; record rule not met when lower.

[
  {
    "Substance Smiles": "Cc1ccc(S(=O)(=O)NC(P(=O)(O)O)P(=O)(O)O)cc1",
    "Assigned Class": "rule not met"
  },
  {
    "Substance Smiles": "O=P(O)(O)C(Nc1ccc(O)cc1)P(=O)(O)O",
    "Assigned Class": "rule met"
  },
  {
    "Substance Smiles": "O=[N+]([O-])c1cc(NC(P(=O)(O)O)P(=O)(O)O)ccc1F",
    "Assigned Class": "rule met"
  },
  {
    "Substance Smiles": "COc1ccc(C(=O)NC(=S)Nc2ccc(S(N)(=O)=O)cc2)cc1",
    "Assigned Class": "rule met"
  },
  {
    "Substance Smiles": "O=C(NC(P(=O)(O)O)P(=O)(O)O)c1ccc(Br)cc1",
    "Assigned Class": "rule not met"
  },
  {
    "Substance Smiles": "C[C@H](NC(=O)P(=O)(O)O)C1CCCCC1",
    "Assigned Class": "rule met"
  },
  {
    "Substance Smiles": "Nc1ccc(C(=O)O)c(O)c1",
    "Assigned Class": "rule not met"
  },
  {
    "Substance Smiles": "O=C(O)c1cc(S(=O)(=O)O)ccc1O",
    "Assigned Class": "rule not met"
  },
  {
    "Substance Smiles": "NS(=O)(=O)c1cccc(NC(=S)NC(=O)c2ccc(Cl)cc2)c1",
    "Assigned Class": "rule met"
  },
  {
    "Substance Smiles": "O=P(O)(O)C(Nc1cccc(F)c1)P(=O)(O)O",
    "Assigned Class": "rule not met"
  }
]
